Record form. Attribute: kcat. Fill in for each entry.
substrate: O=CC=O; test: purified protein; type: biochemical, Arabidopsis thaliana; conditions: true substrate is the hemithioacetal of GO and GSH (preformed 30 min; HTA concentration calculated with Kdiss 3.0 mM), 1.7 mM GSH, 0.5 mM Mn2+, 100 mM MOPS pH 7.0, 25 °C
One number for each entry, in s⁻¹.

Reference set, count: 2
protein	unit-abbreviation	kcat
GLXI;2 (Col-0 GLXI;2) (Arabidopsis thaliana; K229N) (protein, monomer; two domains, active site 2 (His89, Glu137, Gln150, Glu201)) MAEASDLLEWPKKDNRRFLHVVYRVGDLDRTIEFYTEVFGMKLLRKRDIPEEKYSNAFLGFGPETSNFVVELTYNYGVSSYDIGTGFGHFAISTQDVSKLVENVRAKGGNVTREPGPVKGGGSVIAFVKDPDGYTFELIQRGPTPEPFCQVMLRVGDLDRAIKFYEKALGMRLLRKIERPEYKYTIGMMGYAEEYESIVLELTYNYDVTEYTKGNAYAQIAIGTDDVYNSGEVIKIVNQELGGKITREAGPLPGLGTKIVSFLDPDGWKTVLVDNKDFLKELE	s⁻¹	2.4
GLXI;2 (Col-0 GLXI;2) (Arabidopsis thaliana; F278I/K229N) (protein, monomer; two domains, active site 2 (His89, Glu137, Gln150, Glu201)) MAEASDLLEWPKKDNRRFLHVVYRVGDLDRTIEFYTEVFGMKLLRKRDIPEEKYSNAFLGFGPETSNFVVELTYNYGVSSYDIGTGFGHFAISTQDVSKLVENVRAKGGNVTREPGPVKGGGSVIAFVKDPDGYTFELIQRGPTPEPFCQVMLRVGDLDRAIKFYEKALGMRLLRKIERPEYKYTIGMMGYAEEYESIVLELTYNYDVTEYTKGNAYAQIAIGTDDVYNSGEVIKIVNQELGGKITREAGPLPGLGTKIVSFLDPDGWKTVLVDNKDILKELE	s⁻¹	2.6

Give the value of kcat reported for the following: GLXI;2 (Col-0 GLXI;2) (Arabidopsis thaliana) (protein, monomer; two domains, active site 2 (His89, Glu137, Gln150, Glu201)) MAEASDLLEWPKKDNRRFLHVVYRVGDLDRTIEFYTEVFGMKLLRKRDIPEEKYSNAFLGFGPETSNFVVELTYNYGVSSYDIGTGFGHFAISTQDVSKLVENVRAKGGNVTREPGPVKGGGSVIAFVKDPDGYTFELIQRGPTPEPFCQVMLRVGDLDRAIKFYEKALGMRLLRKIERPEYKYTIGMMGYAEEYESIVLELTYNYDVTEYTKGNAYAQIAIGTDDVYKSGEVIKIVNQELGGKITREAGPLPGLGTKIVSFLDPDGWKTVLVDNKDFLKELE
2.8
